Below: a set of entries, each annotated with reported pEC50.
# Assay Method Text: ST_JUDE: Cytotoxicity using luciferase to measure ATP as an indicator of the viability of human Burkitt''s lymphoma lymphoblast cells (Raji)
# Type: toxicity, cell-based
Recall that pEC50 is obtained by taking minus log10 of the concentration measured in molar.

Name the recorded pEC50 of the item CCc1ccc(S(=O)(=O)NC2=C/C(=N\c3ccccc3OC)C(=O)c3ccccc32)cc1 in your answer.
5.56

Now consider a different compound.
Name the recorded pEC50 of the item Fc1ccc(Nc2nc(NCc3ccccc3)c3ccccc3n2)cc1 in your answer.
4.86

###

# System: Plasmodium falciparum
# Assay Method Text: ST_JUDE: Plasmodium falciparum K1 EC50 (uM) as measured by SYBR green dye
# Assay type: functional, organism-based
Below: a set of entries, each annotated with reported pEC50.
Recall that pEC50 is obtained by taking minus log10 of the concentration measured in molar.

// worked examples, pEC50 included
Name the recorded pEC50 of the item Cc1ccc(-c2nc(C(=O)N(C)Cc3cccnc3)cs2)cc1F in your answer.
5.29

Name the recorded pEC50 of the item Cc1cc(N2CCN(C)CC2)nc2ccc(NC(=S)NC3CCN(Cc4ccccc4)CC3)cc12 in your answer.
5.24

Name the recorded pEC50 of the item CN(C)c1cc[n+](CC(=O)c2ccc(Br)cc2)cc1 in your answer.
5.82

Now consider a different molecule.
Name the recorded pEC50 of the item CC(=O)Nc1ccc(S(=O)(=O)Nc2ccc(Nc3nc(C)cc(N(C)C)n3)cc2)cc1 in your answer.
5.20

###

# Assay Method Text: ST_JUDE: Cytotoxicity using luciferase to measure ATP as an indicator of the viability of human epithelial hepatocellular carcinoma cells (HepG2)
# Assay type: toxicity, cell-based
pEC50: −log10 of the molar value.
Result Type: pEC50

// worked examples, pEC50 included
Name the recorded pEC50 of the item C=CCN1C=CC=C/C1=C\c1sc2ccccc2[n+]1CC in your answer.
< 4.67

Name the recorded pEC50 of the item COc1cc(OC)c(NC(=O)C2c3ccccc3C(=O)N(CC(C)C)C2c2cccs2)cc1Cl (stereo not drawn) in your answer.
< 4.35

Name the recorded pEC50 of the item CC(C)(C)C(=O)N1CCN(c2ccc([N+](=O)[O-])c(NC3CC3)c2)CC1 in your answer.
< 4.36

Name the recorded pEC50 of the item Cc1ccc2c(c1)N(C)/C(=C/c1cccc[n+]1C)S2 in your answer.
< 4.64

Name the recorded pEC50 of the item COc1ccc(NC(=O)C2c3ccccc3C(=O)N(CC(C)C)C2c2cccs2)cc1OC (stereo not drawn) in your answer.
< 4.36

Name the recorded pEC50 of the item CCOc1ccc(/C=C/c2nc(=O)c3ccccc3o2)cc1 in your answer.
< 4.40

Name the recorded pEC50 of the item CO/C(O)=C1\C(C)=NC2=C(C(=O)CC(c3ccc(OC)c(OC)c3)C2)C1c1ccc(F)cc1 (stereo not drawn) in your answer.
< 4.33

Name the recorded pEC50 of the item CCCCCCCn1ccc(=N)cc1 in your answer.
< 4.29

Name the recorded pEC50 of the item CC(C)c1ccc(NC(=O)/C=C/c2ccccc2Cl)cc1 in your answer.
< 4.39

Name the recorded pEC50 of the item Oc1ccc(Br)cc1CN1CCN(Cc2ccccc2F)CC1 in your answer.
< 4.44

***
Name the recorded pEC50 of the item CC(C)(C)c1ccc(S(=O)(=O)NC2=C/C(=N\c3ccc(O)cc3)C(=O)c3ccccc32)cc1 in your answer.
5.66

Name the recorded pEC50 of the item OC(CNC1CCCC1)Cn1c2ccccc2c2ccccc21 (stereo not drawn) in your answer.
4.83

Name the recorded pEC50 of the item Fc1ccc(Nc2nc(NCc3ccco3)c3ccccc3n2)cc1 in your answer.
5.08

Name the recorded pEC50 of the item COc1ccc(C2CC3=NC(C)=C(C(=O)OC(C)C)C(c4ccccc4OC)C3=C(O)C2)cc1OC (stereo not drawn) in your answer.
< 4.35

Name the recorded pEC50 of the item COC(=O)c1ccc(NC(=O)C2c3ccccc3C(=O)N(CC(C)C)C2c2cccs2)cc1 (stereo not drawn) in your answer.
< 4.41

Name the recorded pEC50 of the item OC(CNC1CCCC1)Cn1c2ccc(Cl)cc2c2cc(Cl)ccc21 (stereo not drawn) in your answer.
5.06

Name the recorded pEC50 of the item CC(C)(C)c1cc(C2C(C#N)=C(N)OC3=C2C(=O)CCC3)cc(C(C)(C)C)c1O (stereo not drawn) in your answer.
5.52

###

# Assay Method Text: ST_JUDE: Cytotoxicity using luciferase to measure ATP as an indicator of the viability of human foreskin fibroblast cells (BJ)
# Format: toxicity, cell-based
Below: a set of entries, each annotated with reported EC50.

// worked examples, EC50 included
Name the recorded EC50 of the item CCN1/C(=C/c2cccc[n+]2C)C=Cc2cc(C)ccc21 in your answer.
> 32.2 µM

Name the recorded EC50 of the item Cc1c2[nH]c3ccccc3c2c2c([n+]1C)CC(C)(C)CC2 in your answer.
> 55.5 µM

Name the recorded EC50 of the item CC(C)c1ccc(CNCC(O)c2ccccc2)cc1 (stereo not given) in your answer.
> 52.9 µM

Name the recorded EC50 of the item Fc1ccc(Nc2nc(NCc3ccccc3)c3ccccc3n2)cc1 in your answer.
15.2 µM

Name the recorded EC50 of the item COc1ccc(C2CC3=NC(C)=C(C(=O)OC(C)C)C(c4ccccc4OC)C3=C(O)C2)cc1OC (stereo not given) in your answer.
> 44.8 µM

***
Name the recorded EC50 of the item COc1ccc(NC(=O)C2c3ccccc3C(=O)N(C3CCCC3)C2c2cccs2)cc1 (stereo not given) in your answer.
> 40.7 µM

Name the recorded EC50 of the item CCOc1ccc(N(C(C)=O)C2=C(N(C)C)C(=O)c3ccccc3C2=O)cc1 in your answer.
11.2 µM

Name the recorded EC50 of the item CC(C)(C)c1cc(C2C(C#N)=C(N)OC3=C2C(=O)CCC3)cc(C(C)(C)C)c1O (stereo not given) in your answer.
> 36.2 µM

Name the recorded EC50 of the item CCn1nc(-c2ccc(C(F)(F)F)cc2)nc2c(=O)n(C)c(=O)nc1-2 in your answer.
> 50.1 µM

Name the recorded EC50 of the item OC(CNC1CCCCC1)Cn1c2ccc(Cl)cc2c2cc(Cl)ccc21 (stereo not given) in your answer.
> 38.8 µM

###

Below: a set of entries, each annotated with reported log10(EC50).
# System: Plasmodium falciparum
# Assay Method Text: ST_JUDE: Plasmodium falciparum K1 EC50 (uM) as measured by SYBR green dye
# Assay type: functional, organism-based
Friendly reminder: values = log10 of EC50, unit µM.

// worked examples, log10(EC50) included
Jot down log10(EC50) (Plasmodium falciparum) of CCCCN(C)C(=O)C1c2ccccc2C(=O)N(CC(C)C)C1c1cccs1 (centres undefined) .
0.24

Jot down log10(EC50) (Plasmodium falciparum) of CCC1CCCCN1CCCNC(=O)c1ccc2c(c1)sc1nc(-c3ccc(F)cc3)cn12 (centres undefined) .
0.11

Jot down log10(EC50) (Plasmodium falciparum) of Cc1ccc2c(c1)-c1c(cnn1CC(=O)Nc1cccc(C#N)c1)CO2 .
0.73

***
Jot down log10(EC50) (Plasmodium falciparum) of Clc1cccc(/C=N/Nc2[nH]cnc3ncnc2-3)c1 .
0.56

Jot down log10(EC50) (Plasmodium falciparum) of C[n+]1ccccc1/C=C/c1ccc(O)cc1 .
0.52

Jot down log10(EC50) (Plasmodium falciparum) of CCC(=O)NC(c1ccco1)c1cc(Cl)c2cccnc2c1O (centres undefined) .
0.43

Jot down log10(EC50) (Plasmodium falciparum) of CC(=O)NC1=C(Cl)C(=O)c2ccccc2C1=O .
0.34

Jot down log10(EC50) (Plasmodium falciparum) of CCCN1C(=O)c2[nH]nc(-c3c(C)cc(C)cc3O)c2C1c1ccc(OC)cc1 (centres undefined) .
0.31

Jot down log10(EC50) (Plasmodium falciparum) of Cc1ccc(NC(=O)C2c3ccccc3C(=O)N(C3CCCC3)C2c2cccs2)cc1 (centres undefined) .
0.16

Jot down log10(EC50) (Plasmodium falciparum) of Cc1ccc2c(c1)C=C/C(=C\c1sc3ccccc3[n+]1C)N2C .
-1.07

Jot down log10(EC50) (Plasmodium falciparum) of COc1ccc(C2C(C(=O)Nc3cc(C)ccc3OC)c3ccccc3C(=O)N2C)cc1 (centres undefined) .
0.57

###

# Assay Method Text: ST_JUDE: Cytotoxicity using luciferase to measure ATP as an indicator of the viability of human foreskin fibroblast cells (BJ)
# Format: toxicity, cell-based
Below: a set of entries, each annotated with reported EC50.

Name the recorded EC50 of the item CCOc1ccc(Nc2cc(C)c3ccc(O)cc3n2)cc1 in your answer.
> 51.7 µM

Name the recorded EC50 of the item Cc1ccc(NC(=O)C2c3ccccc3C(=O)N(CC(C)C)C2c2cccs2)cc1C (stereo unspecified) in your answer.
> 41.2 µM

Name the recorded EC50 of the item CC(CNC(=O)c1cn(C2CCCCC2)cc(C(=O)NC(C)(C)C)c1=O)c1ccccc1 (stereo unspecified) in your answer.
> 52.8 µM

Name the recorded EC50 of the item CCOc1cc(C2CC(=O)NC3=C2C(=O)CC(c2ccccc2Cl)C3)cc(Cl)c1O (stereo unspecified) in your answer.
> 43.2 µM

Name the recorded EC50 of the item Oc1ccc(Br)cc1CN1CCN(C2CC3CCC2C3)CC1 (stereo unspecified) in your answer.
> 38.2 µM

***
Name the recorded EC50 of the item CCCO/C(O)=C1\C(C)=NC2=C(C(=O)CC(c3ccc(OC)c(OC)c3)C2)C1c1cccc(C)c1 (stereo unspecified) in your answer.
> 44.3 µM

Name the recorded EC50 of the item CC(C)CN1C(=O)c2ccccc2C(C(=O)Nc2cccc(C(F)(F)F)c2)C1c1cccs1 (stereo unspecified) in your answer.
> 47.2 µM

Name the recorded EC50 of the item N=c1n(CCN2CCCCC2)c2ccccc2n1CC(O)c1ccc(Cl)c(Cl)c1 (stereo unspecified) in your answer.
10.4 µM

Name the recorded EC50 of the item COc1ccc(O)c(CN2CCN(c3cc(C)ccc3C)CC2)c1 in your answer.
> 35.5 µM

Name the recorded EC50 of the item OC(CNC1CCCC1)Cn1c2ccccc2c2ccccc21 (stereo unspecified) in your answer.
20.3 µM

Name the recorded EC50 of the item COc1ccc(Nc2cc(C)c3ccc(O)cc3n2)cc1 in your answer.
> 47.4 µM

Name the recorded EC50 of the item Cc1ccc(C)c(N2CCN(Cc3cc(Br)ccc3O)CC2)c1 in your answer.
> 35.6 µM

Name the recorded EC50 of the item CC(C)(C)NC(=O)c1cn(C2CCCCC2)cc(C(=O)NC2CCN(Cc3ccccc3)C2)c1=O (stereo unspecified) in your answer.
> 28.7 µM

Name the recorded EC50 of the item CCOC(=O)C1(Cc2cccc(C(F)(F)F)c2)CCN(Cc2ccccc2O)CC1 in your answer.
> 41.3 µM

Name the recorded EC50 of the item O=S(=O)(c1ccc(Cl)cc1)N1CCN(C(=S)NCc2ccco2)CC1 in your answer.
> 30.1 µM

Name the recorded EC50 of the item CCOc1ccc(NC(=O)C2c3ccccc3C(=O)N(CC(C)C)C2c2cccs2)cc1 (stereo unspecified) in your answer.
> 42.8 µM

Name the recorded EC50 of the item CO/C(O)=C1\C(C)=NC2=C(C(=O)CC(c3ccc(OC)c(OC)c3)C2)C1c1ccccc1C (stereo unspecified) in your answer.
> 41.4 µM
